Test: Partition coefficient (logD7.4)
Conditions: octanol/water, pH 7.4
metric.name: logD
// no unit, no text: just the number

**Query** State, in one line, measured logD of COc1ccc(NC(=O)c2ccc(-c3ccc(-c4noc(C)n4)cc3C)cc2)cc1N1CCN(C)CC1
**Result** 4.48

**Query** Fill in logD for record Cc1nc(-c2ccc(-c3ccc(C(=O)Nc4ccc(O)c(N5CCN(C)CC5)c4)cc3)c(C)c2)no1
**Result** 3.91

**Query** Could you please provide reported logD for Cc1nc(-c2ccc(-c3ccc(C(=O)Nc4ccc(OCCF)c(N5CCN(C)CC5)c4)cc3)c(C)c2)no1 ? Thanks!
**Result** 4.91

**Query** State its logD for this compound: COc1ccc(NC(=O)c2ccc(-c3ccc(C(=N)N)cc3C)cc2)cc1N1CCN(C)CC1
**Result** -0.35

**Query** Tell me measured logD for Cc1nc(-c2ccc(-c3ccc(C(=O)Nc4ccc(OS(=O)(=O)C(F)(F)F)c(N5CCN(C)CC5)c4)cc3)c(C)c2)no1 please.
**Result** 5.64

**Query** Item COc1ccc(NC(=O)c2ccc(-c3ccc(C(N)=O)cc3C)cc2)cc1N1CCN(C)CC1 : provide logD
**Result** 3.18

**Query** Write down logD measured for item COc1ccc(NS(=O)(=O)c2ccc(-c3ccc(-c4nnc(C)o4)cc3C)cc2)cc1N1CCN(C)CC1
**Result** 3.6

**Query** Retrieve logD measured for Cc1nnc(-c2ccc(-c3ccc(C(=O)Nc4ccc(OS(C)(=O)=O)c(N5CCN(C)CC5)c4)cc3)c(C)c2)o1 and print it.
**Result** 2.96

**Query** Retrieve logD measured for Cc1nnc(-c2ccc(-c3ccc(C(=O)Nc4ccc(O)c(N5CCN(C)CC5)c4)cc3)c(C)c2)o1 and print it.
**Result** 3.12

**Query** Give the reported logD for this compound. Cc1nc(-c2ccc(-c3ccc(C(=O)N4CCc5cc6c(cc54)C4(CCN(C)CC4)CO6)cc3)c(C)c2)no1
**Result** 4.64

====

Assay: pA2 value for the effect in RSV model.
Assay type: functional
Give measured pA2 for each item. Keep answers brief.

**Query** Supply reported pA2 belonging to this molecule: Cc1nc(-c2ccc(-c3ccc(C(=O)Nc4ccc(OCCF)c(N5CCN(C)CC5)c4)cc3)c(C)c2)no1
**Result** 8.3

**Query** Specify measured pA2 for Cc1nnc(-c2ccc(-c3ccc(C(=O)Nc4ccc(O)c(N5CCN(C)CC5)c4)cc3)c(C)c2)o1 .
**Result** 8

**Query** For the molecule COc1ccc(NC(=O)c2ccc(-c3ccc(C(=N)N)cc3C)cc2)cc1N1CCN(C)CC1 , report pA2.
**Result** 9.6

**Query** Entry Cc1nnc(-c2ccc(-c3ccc(C(=O)Nc4ccc(OS(C)(=O)=O)c(N5CCN(C)CC5)c4)cc3)c(C)c2)o1 needs its pA2 filled in; supply it.
**Result** 8.3

**Query** Supply pA2 value. Item: COc1ccc(NC(=O)c2ccc(-c3ccc(-c4noc(C)n4)cc3C)cc2)cc1N1CCN(C)CC1
**Result** 9.9

**Query** Specify measured pA2 for COc1ccc(NC(=O)c2ccc(-c3ccc(C(N)=O)cc3C)cc2)cc1N1CCN(C)CC1 .
**Result** 10

**Query** Report measured pA2; entry is COc1ccc(NS(=O)(=O)c2ccc(-c3ccc(-c4nnc(C)o4)cc3C)cc2)cc1N1CCN(C)CC1
**Result** 7

**Query** Dear colleague, please send me the reported pA2 for COc1ccc(NC(=O)c2ccc(-c3ccc(-c4nnc(C)o4)cc3C)cc2)cc1N1CCN(C)CC1 when you can.
**Result** 9.1

**Query** Please look at this molecule and report its pA2: Cc1nc(-c2ccc(-c3ccc(C(=O)N4CCc5cc6c(cc54)C4(CCN(C)CC4)CO6)cc3)c(C)c2)no1
**Result** 7.4

**Query** Supply pA2 value. Item: Cc1nc(-c2ccc(-c3ccc(C(=O)Nc4ccc(O)c(N5CCN(C)CC5)c4)cc3)c(C)c2)no1
**Result** 7.3
